- EXPERIMENTAL_TARGET: BTK (C481S) (Homo sapiens, UniProt Q06187, C481S)
- Construct: purchased Reaction Biology Corp., Malvern, Pa; (contract assay)
- Sequence (Q06187 whole entry C481S): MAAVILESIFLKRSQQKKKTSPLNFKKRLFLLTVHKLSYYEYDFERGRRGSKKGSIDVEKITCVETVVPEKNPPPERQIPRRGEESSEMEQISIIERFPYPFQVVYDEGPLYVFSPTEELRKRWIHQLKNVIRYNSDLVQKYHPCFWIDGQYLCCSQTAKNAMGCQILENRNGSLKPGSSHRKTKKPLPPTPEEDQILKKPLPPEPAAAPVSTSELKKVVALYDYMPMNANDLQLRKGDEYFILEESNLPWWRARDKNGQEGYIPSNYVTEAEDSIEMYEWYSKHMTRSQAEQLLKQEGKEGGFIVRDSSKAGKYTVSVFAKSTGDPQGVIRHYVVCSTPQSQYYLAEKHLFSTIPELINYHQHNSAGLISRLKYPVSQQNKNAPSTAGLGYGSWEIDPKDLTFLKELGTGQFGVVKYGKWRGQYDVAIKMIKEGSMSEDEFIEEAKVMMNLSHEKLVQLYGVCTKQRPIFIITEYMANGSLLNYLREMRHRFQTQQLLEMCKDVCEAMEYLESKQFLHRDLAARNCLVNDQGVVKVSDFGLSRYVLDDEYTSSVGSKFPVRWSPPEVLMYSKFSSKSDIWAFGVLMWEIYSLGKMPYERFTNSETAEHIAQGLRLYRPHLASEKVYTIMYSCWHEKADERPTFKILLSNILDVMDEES
- ASSAY_PROTOCOL: BTK cysteine mutant C481S inhibition (Reaction Biology Corp.)
- Format: biochemical
- TEST_CONDITIONS: ratio of the BTK IC50 values, C481S over wild-type
OBSERVED_PROPERTY: Ratio C481S/WT

Reference set, count: 2
COMPOUND: C=CC(=O)Nc1cccc(-c2csc3c(=O)cc(N4CCOCC4)oc23)c1 [Compound 1]
Ratio C481S/WT: >81

COMPOUND: C=CS(=O)(=O)Nc1cccc(-c2csc3c(=O)cc(N4CCOCC4)oc23)c1 [II-18]
Ratio C481S/WT: >20K

Asked: Which Ratio C481S/WT is listed for C=CC(=O)Nc1cc(OC)cc(-c2csc3c(=O)cc(N4CCOCC4)oc23)c1 [Compound 8] ?
Given back: >60
